Numbers sourced from PubChem BioAssay (NCATS).

assayNotes: qHTS of pediatric cancer cell lines to identify multiple opportunities for drug repurposing: Primary screen for Rh41 cells (AID 1347108);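 note: luminescence drop marks cytotoxic hits; nearly all actives have a fitted effect of over 70% in size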
studyConditions: Rh41 rhabdomyosarcoma viability, CellTiter-Glo luminescence, 48 h; series mostly up to 46 µM
Records with an inconclusive call do not appear. Active and inactive are the calls of the source. Calls come from the whole dose curve; as a rule, active = well fitted cell-killing curve with a large enough effect; inconclusive = small, poorly fitted or top-dose-only effect; inactive = no such curve, though single readings can be large or run the other way.
# output must be one of 1 (active), -1 (inactive)

NC(=O)c1ncn([C@@H]2O[C@H](CO)[C@@H](O)[C@@H]2O)c1O = -1

Please find the next compound below.
Req: Give the logged outcome of this assay for the following compound: C[C@@H](NCc1cc2ccccc2[nH]1)c1cccc2ccccc12
Resp: -1

----------
assayNotes: qHTS of pediatric cancer cell lines to identify multiple opportunities for drug repurposing: Primary screen for BT-37 cells (AID 1347094)
studyConditions: BT-37 viability, CellTiter-Glo luminescence, 48 h; series mostly up to 57.3 µM
Results filed as inconclusive are left out. Active and inactive are the calls of the source. Calls follow the shape of the dose curve; as a rule, active = well fitted cell-killing curve with a large enough effect; inconclusive = small, poorly fitted or top-dose-only effect; inactive = flat fitted curve, though single readings scatter.
# output must be one of active, inactive

Example results:
O=C(C=CC=Cc1ccc2c(c1)OCO2)N1CCCCC1 = inactive
CN1CCc2c(c3ccccc3n2Cc2ccc(C(=O)NO)cc2)C1 = active
COc1cccc2c1C(=O)c1c(O)c3c(c(O)c1C2=O)C[C@@](O)(C(=O)CO)C[C@@H]3O[C@H]1C[C@H](N)[C@@H](O)[C@H](C)O1 = active

Req: Give the logged outcome of this assay for the following compound: C[C@@]12C[C@@]3(O)O[C@@H](O1)[C@]1(COC(=O)c4ccccc4)[C@@H]3C[C@@]12O[C@@H]1O[C@H](CO)[C@@H](O)[C@H](O)[C@@H]1O
Resp: inactive

Req: Now try Cc1onc(-c2ccccc2)c1C(=O)N[C@@H]1C(=O)N2[C@@H](C(=O)O)C(C)(C)S[C@@H]12 .
Resp: inactive
